Numbers sourced from patent US20130109682A1.

SYSTEM_UNDER_TEST: PIM2 (Homo sapiens, UniProt Q9P1W9)
Sequence (Q9P1W9 whole entry): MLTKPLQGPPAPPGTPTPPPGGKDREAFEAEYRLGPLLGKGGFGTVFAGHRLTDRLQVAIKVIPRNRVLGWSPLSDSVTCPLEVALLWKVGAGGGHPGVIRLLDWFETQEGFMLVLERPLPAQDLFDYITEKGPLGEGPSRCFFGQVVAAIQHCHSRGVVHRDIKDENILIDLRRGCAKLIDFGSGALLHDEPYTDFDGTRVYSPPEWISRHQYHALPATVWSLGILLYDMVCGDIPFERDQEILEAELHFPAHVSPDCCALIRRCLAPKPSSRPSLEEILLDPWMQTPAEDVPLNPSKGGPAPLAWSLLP
ASSAY_TEXT: KinaseGlo Pim2 ATP depletion assay
Assay type: biochemical
MEASURED_ATTRIBUTE: IC50 (nM)

Below, 5 molecules whose answers are already recorded.
# MOLECULE, IC50 / nM
rows = [
    ("CC1C(c2ccncc2NC(=O)c2ccc(F)c(-c3c(F)cccc3F)n2)OC(C)[C@H](O)C1O (stereo in doubt) [Example 66]", 99),
    ("N#Cc1ccc(F)c(-c2nc(C(=O)Nc3cnccc3[C@H]3C[C@@H](O)[C@H](O)[C@@H](CCl)O3)ccc2F)c1F", 5),
    ("CC[C@]1(O)[C@H](O)C[C@H](c2ccncc2NC(=O)c2c[nH]cc(-c3ccccc3)c2=O)O[C@@H]1C", 3080),
    ("O=C(Nc1cnccc1[C@H]1OCC[C@@H](CO)O1)c1csc(-c2c(F)cccc2F)n1", 2890),
    ("CC[C@H]1O[C@@H](c2ccncc2NC(=O)c2nc(-c3ccccc3F)c(F)cc2N)C[C@@H](O)[C@@H]1O", 3),
]

I: N#CC[C@H]1O[C@@H](c2ccncc2NC(=O)c2ccc(C#N)c(-c3c(F)cccc3F)n2)CC[C@@H]1O
II: O=C(Nc1cnccc1[C@@]1(C(F)(F)F)CCCCO1)c1ccc(F)c(-c2c(F)cccc2F)n1
Prompt: Which shows the larger IC50 value: I or II ? Please identify the chosen entry by its label.
Completion: II
(II: 7360 nM, I: 1270 nM)

a: N#C[C@H]1OC(c2ccncc2NC(=O)c2ccc(F)c(-c3c(F)cccc3F)n2)=C[C@@H](O)[C@@H]1O
b: CC[C@@H]1O[C@H](c2ccncc2NC(=O)c2nc(-c3c(F)cccc3F)ncc2N)C[C@H](O)[C@@]1(C)O
Prompt: For a and b , which recorded IC50 is lower? Answer by quoting the chosen item's label.
Completion: a

P: C[C@@H]1O[C@H](c2ccncc2NC(=O)c2ccc(F)c(-c3c(F)cccc3F)n2)C[C@H](O)[C@@]1(C)O (stereo in doubt)
Q: Nc1cnc(-c2c(F)cccc2F)nc1C(=O)Nc1cnccc1[C@H]1C[C@@H](O)[C@@]2(O)CCC[C@H]2O1
R: O=C1CC[C@H]2O[C@@H](c3ccncc3NC(=O)c3ccc(F)c(-c4c(F)cccc4F)n3)C[C@@H](O)[C@H]2N1
S: O=C(Nc1cnccc1[C@H]1C[C@@H](O)[C@@]2(O)CCCC[C@H]2O1)c1ccnn(-c2ccccc2F)c1=O
Prompt: Number of molecules to sort: 4. Sort criterion: IC50, ascending. Arrange the labels as the request states and list them.
Completion: P, Q, R, S
